Data origin: patent US9409866B2

# target-entity: human CB2 receptors (Homo sapiens (Human))
# Sequence (P34972 whole entry): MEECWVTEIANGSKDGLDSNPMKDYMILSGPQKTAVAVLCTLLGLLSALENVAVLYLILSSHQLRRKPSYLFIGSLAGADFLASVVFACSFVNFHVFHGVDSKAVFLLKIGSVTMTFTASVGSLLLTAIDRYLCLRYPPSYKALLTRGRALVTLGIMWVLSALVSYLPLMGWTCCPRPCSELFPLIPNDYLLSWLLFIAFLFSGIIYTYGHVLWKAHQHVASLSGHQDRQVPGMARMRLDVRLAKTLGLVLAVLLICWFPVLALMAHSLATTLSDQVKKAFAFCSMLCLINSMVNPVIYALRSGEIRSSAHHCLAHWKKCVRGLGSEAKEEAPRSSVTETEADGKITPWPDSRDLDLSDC
# experiment: functional cAMP assay, CHO cells expressing human CB2
# Assay type: cell-based
# condition: read-out: Human CB2 EC50
pEC50: −log10 of the molar value.
Would you mind labelling by pEC50? At or over 8 is yes, under is no.

Example results:
> print(dat)
                                   molecule  class.assignment
1  NC(=O)[C@H]1CC(F)(F)CN1C(=O)c1cc(OCC(F)(F)F)c(C2CC2)cn1                no
2  Cn1nnc(C(C)(CC2CC2)NC(=O)c2cc(OCC(F)(F)F)c(C3CC3)cn2)n1 (stereo not shown)                no

Determine whether this molecule has pEC50 no lower than 8: NC(=O)CC(NC(=O)c1cc(OCC(F)(F)F)c(C2CC2)cn1)C1CC1 (stereo not shown)
no

---

Consider the following compounds and their measured pEC50 readings.
# target-entity: human CB1 receptors (Homo sapiens (Human), UniProt P21554)
# Sequence (P21554 whole entry): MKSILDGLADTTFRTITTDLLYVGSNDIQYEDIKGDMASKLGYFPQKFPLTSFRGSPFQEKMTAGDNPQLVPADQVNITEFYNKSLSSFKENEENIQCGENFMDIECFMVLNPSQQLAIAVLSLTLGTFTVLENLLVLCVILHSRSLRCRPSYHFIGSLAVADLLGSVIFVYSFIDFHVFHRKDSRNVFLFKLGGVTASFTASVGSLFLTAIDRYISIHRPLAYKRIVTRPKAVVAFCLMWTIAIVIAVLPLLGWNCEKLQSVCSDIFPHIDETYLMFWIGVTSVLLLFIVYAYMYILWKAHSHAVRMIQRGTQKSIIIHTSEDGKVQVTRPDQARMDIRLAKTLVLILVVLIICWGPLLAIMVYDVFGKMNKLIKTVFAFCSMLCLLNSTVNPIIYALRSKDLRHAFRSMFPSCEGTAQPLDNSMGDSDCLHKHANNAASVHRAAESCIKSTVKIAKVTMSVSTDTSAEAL
# experiment: functional cAMP assay, CHO cells expressing human CB1
# Format: cell-based
# condition: functional cAMP assay, CHO cells expressing human CB1; read-out: Human CB1 EC50
pEC50: −log10 of the molar value.

Example compounds with recorded pEC50:
> print(dat)
                                   compound                             target.entity  value.type  result
1  O=C(NC1(c2nccs2)COC1)c1cc(OCC2CC2)c(Cl)cn1  human CB1 receptors (Homo sapiens (Human), UniProt P21554)       pEC50  < 5.00
2  Cc1cnc(C(C)(CC2CC2)NC(=O)c2cc(OCC(F)(F)F)c(C3CC3)cn2)s1 (stereo not shown)  human CB1 receptors (Homo sapiens (Human), UniProt P21554)       pEC50  < 5.00
3  Cc1nc(C(C)(NC(=O)c2cc(OCC(F)(F)F)c(C3CC3)cn2)C(=O)N2CC(F)(F)C2)no1 (stereo not shown)  human CB1 receptors (Homo sapiens (Human), UniProt P21554)       pEC50  < 5.00
4  Cc1nc(C(C)(CS(C)(=O)=O)NC(=O)c2cc(OCC(F)(F)F)c(C3=CCC3)cn2)no1 (stereo not shown)  human CB1 receptors (Homo sapiens (Human), UniProt P21554)       pEC50  < 5.00

So what pEC50 did CNC(=O)[C@@H](NC(=O)c1cc(OCC(F)(F)F)c(Cl)cn1)C(C)(C)C get with human CB1 receptors (Homo sapiens (Human), UniProt P21554)?
< 5.00

# query: pEC50 | item Cc1nc(C(NC(=O)c2cc(OCC(F)(F)F)c(C3CC3)cn2)C(C)(C)C)no1 (stereo not shown) | system: human CB1 receptors (Homo sapiens (Human), UniProt P21554)
< 5.00

Give human CB1 receptors (Homo sapiens (Human), UniProt P21554) pEC50 for Cc1nc(C(NC(=O)c2cc(O[C@@H](C)C(F)(F)F)c(C3CC3)cn2)C(C)(C)C)no1 (stereo partly shown) [Example 221]
< 5.00

Return pEC50 measured with human CB1 receptors (Homo sapiens (Human), UniProt P21554) given this compound: Cc1nc(C(C)(NC(=O)c2cc(O[C@@H](C)C(F)(F)F)c(C3(F)COC3)cn2)C2CC2)no1 (stereo partly shown) [Example 144]
< 5.00

Lab note: need pEC50 with human CB1 receptors (Homo sapiens (Human), UniProt P21554) for entry Cc1nc(C(C)(CS(C)(=O)=O)NC(=O)c2cc(OCC(F)(F)F)c(C3CC3)cn2)no1 (stereo not shown) , please look it up.
< 5.00

Query for human CB1 receptors (Homo sapiens (Human), UniProt P21554): what pEC50 does the record show for Cc1nc(C(C)(COCc2ccccc2)NC(=O)c2cc(OCC(F)(F)F)c(C3CC3)cn2)no1 (stereo not shown) ?
< 5.00
